pIC50: recorded values
Target: Flt3 (Homo sapiens, UniProt P36888)
Sequence (P36888 27-993): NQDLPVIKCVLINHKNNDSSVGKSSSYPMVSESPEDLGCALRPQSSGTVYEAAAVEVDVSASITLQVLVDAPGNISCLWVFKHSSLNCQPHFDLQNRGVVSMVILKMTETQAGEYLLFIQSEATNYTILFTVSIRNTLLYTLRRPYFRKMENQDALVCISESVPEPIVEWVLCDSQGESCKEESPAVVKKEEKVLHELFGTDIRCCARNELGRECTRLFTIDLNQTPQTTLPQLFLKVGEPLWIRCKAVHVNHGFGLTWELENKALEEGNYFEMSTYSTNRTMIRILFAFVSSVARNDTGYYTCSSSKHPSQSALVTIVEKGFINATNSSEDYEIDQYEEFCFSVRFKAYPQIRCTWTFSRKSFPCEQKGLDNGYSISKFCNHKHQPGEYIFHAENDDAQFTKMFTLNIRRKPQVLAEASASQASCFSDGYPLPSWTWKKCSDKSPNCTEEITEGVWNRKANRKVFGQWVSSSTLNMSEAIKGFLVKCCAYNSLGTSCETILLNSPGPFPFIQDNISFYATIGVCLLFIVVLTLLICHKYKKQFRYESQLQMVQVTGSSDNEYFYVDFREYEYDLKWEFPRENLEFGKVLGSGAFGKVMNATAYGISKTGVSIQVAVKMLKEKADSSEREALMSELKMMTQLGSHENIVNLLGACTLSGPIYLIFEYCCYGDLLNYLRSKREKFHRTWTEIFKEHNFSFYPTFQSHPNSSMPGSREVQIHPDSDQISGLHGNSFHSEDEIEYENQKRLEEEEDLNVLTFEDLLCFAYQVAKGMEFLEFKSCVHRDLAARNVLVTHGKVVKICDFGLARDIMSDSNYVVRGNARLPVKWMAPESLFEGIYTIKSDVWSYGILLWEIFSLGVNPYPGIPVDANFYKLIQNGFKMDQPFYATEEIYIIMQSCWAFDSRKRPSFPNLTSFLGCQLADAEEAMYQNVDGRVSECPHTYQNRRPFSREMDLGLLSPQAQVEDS
pIC50: −log10 of the molar value.
Measured property: pIC50

>>> df
                                smiles_text                          test_system   measurement
0           COc1cccc(C#Cc2ccnc3[nH]ccc23)c1  Flt3 (Homo sapiens, UniProt P36888)  6.00 to 7.00
1  CCNC(=O)/C=C/c1cccc(C#Cc2ccnc3[nH]ccc23)c1  Flt3 (Homo sapiens, UniProt P36888)        < 6.00
2          COc1ccc(F)cc1C#Cc1ccnc2[nH]ccc12  Flt3 (Homo sapiens, UniProt P36888)        < 6.00
3     Nc1cc(C#Cc2ccccc2CNC(=O)C(F)(F)F)ccn1  Flt3 (Homo sapiens, UniProt P36888)        < 6.00
4            Cc1ccc(C#Cc2ccnc3[nH]ccc23)cc1  Flt3 (Homo sapiens, UniProt P36888)        < 6.00

* * *

pIC50: −log10 of the molar value.
Form: system (Flt3 (Homo sapiens)), quantity (pIC50), values below.
Measured property: pIC50

>>> print(df.to_string())
                               smiles_text          test_system   measurement
0   FC(F)(F)Oc1cccc(C#Cc2ccnc3[nH]ccc23)c1  Flt3 (Homo sapiens)        < 6.00
1  CN(C)c1ccc(C#Cc2ncnc3sc4c(c23)CCCC4)cc1  Flt3 (Homo sapiens)        < 6.00
2   COC(=O)c1ccc(C#Cc2ccnc3[nH]ccc23)cc1OC  Flt3 (Homo sapiens)        < 6.00
3             C(#Cc1ccnc2[nH]ccc12)c1ccoc1  Flt3 (Homo sapiens)        < 6.00
4         N#Cc1ccc(C#Cc2ccnc3[nH]ccc23)cc1  Flt3 (Homo sapiens)        < 6.00
5          COc1cncc(C#Cc2ccnc3[nH]ccc23)c1  Flt3 (Homo sapiens)  6.00 to 7.00
6    C(#Cc1ccnc2[nH]ccc12)c1cccc2[nH]ccc12  Flt3 (Homo sapiens)        < 6.00
7    FC(F)(F)c1cccc(C#Cc2ccnc3[nH]ccc23)c1  Flt3 (Homo sapiens)        < 6.00
8           C[Si](C)(C)C#Cc1ncnc2[nH]ccc12  Flt3 (Homo sapiens)        < 6.00

* * *

Target: VEGFR3 (Homo sapiens)
Sequence (P35916 25-1363): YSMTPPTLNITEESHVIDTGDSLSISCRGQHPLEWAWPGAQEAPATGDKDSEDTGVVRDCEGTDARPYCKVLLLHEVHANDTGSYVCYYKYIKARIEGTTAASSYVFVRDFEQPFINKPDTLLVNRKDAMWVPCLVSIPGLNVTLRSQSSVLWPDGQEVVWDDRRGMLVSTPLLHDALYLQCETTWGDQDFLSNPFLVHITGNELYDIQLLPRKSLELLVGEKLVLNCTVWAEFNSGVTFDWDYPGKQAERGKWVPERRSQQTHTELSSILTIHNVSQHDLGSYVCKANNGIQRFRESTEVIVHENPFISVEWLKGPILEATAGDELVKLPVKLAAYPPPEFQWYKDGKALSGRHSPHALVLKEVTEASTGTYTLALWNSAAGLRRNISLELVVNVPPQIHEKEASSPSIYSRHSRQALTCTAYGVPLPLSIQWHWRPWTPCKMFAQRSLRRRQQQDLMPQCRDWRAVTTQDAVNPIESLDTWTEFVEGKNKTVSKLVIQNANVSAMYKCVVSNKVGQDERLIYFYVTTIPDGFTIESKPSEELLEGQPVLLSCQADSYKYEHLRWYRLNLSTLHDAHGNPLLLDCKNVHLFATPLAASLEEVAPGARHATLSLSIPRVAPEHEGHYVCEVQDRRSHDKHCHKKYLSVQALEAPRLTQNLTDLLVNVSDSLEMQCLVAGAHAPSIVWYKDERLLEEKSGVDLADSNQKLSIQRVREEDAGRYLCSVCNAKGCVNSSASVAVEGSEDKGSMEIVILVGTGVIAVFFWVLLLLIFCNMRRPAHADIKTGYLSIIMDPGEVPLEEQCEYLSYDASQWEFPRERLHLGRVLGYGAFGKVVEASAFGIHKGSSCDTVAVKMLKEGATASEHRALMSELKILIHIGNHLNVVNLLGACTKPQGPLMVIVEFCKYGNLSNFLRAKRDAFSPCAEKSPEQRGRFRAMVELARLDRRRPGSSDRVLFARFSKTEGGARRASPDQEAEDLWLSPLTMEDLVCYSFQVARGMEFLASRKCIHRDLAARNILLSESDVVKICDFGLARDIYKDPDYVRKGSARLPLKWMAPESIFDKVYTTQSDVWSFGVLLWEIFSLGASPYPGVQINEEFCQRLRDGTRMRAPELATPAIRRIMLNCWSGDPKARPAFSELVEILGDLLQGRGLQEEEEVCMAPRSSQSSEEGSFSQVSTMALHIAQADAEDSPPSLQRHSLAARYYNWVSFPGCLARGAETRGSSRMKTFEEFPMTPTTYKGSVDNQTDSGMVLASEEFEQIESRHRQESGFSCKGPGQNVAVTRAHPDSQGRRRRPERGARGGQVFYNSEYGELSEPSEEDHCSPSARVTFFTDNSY
pIC50: −log10 of the molar value.
pIC50: recorded values
Measured property: pIC50

>>> print(df.to_string())
                                smiles_text   measurement
 0                      C#Cc1ncnc2[nH]ccc12        < 6.00
 1           Cc1ccnc(C#Cc2ccnc3[nH]ccc23)c1  6.00 to 7.00
 2      CC(C)Oc1cccc(C#Cc2ccnc3[nH]ccc23)c1        < 6.00
 3        Cc1cc(C#Cc2ccnc3[nH]ccc23)ccc1C#N        < 6.00
 4            NCc1ccccc1C#Cc1ccnc2[nH]ccc12        < 6.00
 5      CC(=O)c1cccc(C#Cc2ccnc3[nH]ccc23)c1  6.00 to 7.00
 6   C(#Cc1ccnc2[nH]ccc12)c1ccccc1-c1ccccc1        < 6.00
 7       CC(=O)Nc1ccccc1C#Cc1ccnc2[nH]ccc12  6.00 to 7.00
 8                      C#Cc1ccnc2[nH]ccc12        < 6.00
 9    C(#Cc1ccnc2[nH]ccc12)c1ccccc1-c1cccs1        < 6.00
10          COc1ccc(C#Cc2ccnc3[nH]ccc23)cc1        < 6.00
11             Cc1ccccc1C#Cc1ccnc2[nH]ccc12  6.00 to 7.00
12           Cc1ccc(C#Cc2ccnc3[nH]ccc23)cc1  6.00 to 7.00
13       CN(C)c1ccc(C#Cc2ccnc3[nH]ccc23)cc1        < 6.00
14    C(#Cc1ccnc2[nH]ccc12)c1cccc2[nH]ccc12  6.00 to 7.00
15  C(#Cc1ccnc2[nH]ccc12)c1cccc(-n2cccc2)c1        < 6.00
16         C=Cc1cccc(C#Cc2ccnc3[nH]ccc23)c1  6.00 to 7.00
17         N#Cc1cncc(C#Cc2ccnc3[nH]ccc23)c1        < 6.00
18  O=C(c1ccc(C#Cc2ccnc3[nH]ccc23)cc1)C1CC1        < 6.00
19         C#Cc1ccc(C#Cc2ccnc3[nH]ccc23)cc1        < 6.00
20    FC(F)(F)c1ccc(C#Cc2ccnc3[nH]ccc23)cc1        < 6.00

* * *

Form: system (VEGFR2 (Homo sapiens, UniProt P35968)), quantity (IC50), values below.
Measured property: IC50

>>> print(df.to_string())
                                smiles_text  measured_property  measurement
0             CCc1ccccc1C#Cc1ccnc2[nH]ccc12               IC50       > 1 µM
1          C#Cc1ccc(C#Cc2ccnc3[nH]ccc23)cc1               IC50       > 1 µM
2      FC(F)(F)Oc1ccccc1C#Cc1ccnc2[nH]ccc12               IC50       > 1 µM
3       CC(=O)c1cccc(C#Cc2ccnc3[nH]ccc23)c1               IC50       > 1 µM
4            Cc1cccc(C#Cc2ccnc3[nH]ccc23)c1               IC50       > 1 µM
5           COc1cccc(C#Cc2ccnc3[nH]ccc23)n1               IC50       > 1 µM
6       CC(=O)c1ccc(C#Cc2ccnc3[nH]ccc23)nc1               IC50       > 1 µM
7  O=C(Cc1ccccc1C#Cc1ccnc2[nH]ccc12)N1CCC(F)(F)CC1               IC50       > 1 µM
8             COc1ccccc1C#Cc1ccnc2[nH]ccc12               IC50       > 1 µM
9              Cc1ccncc1C#Cc1ccnc2[nH]ccc12               IC50  0.1 to 1 µM

* * *

Biological target: VEGFR3 (Homo sapiens)
Construct: purchased Millpore Corp. (Millipore) 14-681
Test: VEGFR3 enzyme activity assay (Caliper LC3000 mobility shift)
Type: biochemical
Conditions: 400 uM ATP (Km), 0.4 nM VEGFR3, 90 minutes at RT
pIC50: −log10 of the molar value.
Measured property: pIC50

>>> print(df.to_string())
                                 smiles_text  measured_property   measurement
 0            Cc1cccc(C#Cc2ccnc3[nH]ccc23)n1              pIC50        < 6.00
 1   C(#Cc1ccnc2[nH]ccc12)c1ccc(-c2cccs2)cc1              pIC50        < 6.00
 2    COC(=O)c1ccc(C#Cc2ccnc3[nH]ccc23)cc1OC              pIC50        < 6.00
 3   C(#Cc1ccnc2[nH]ccc12)c1ccc(-c2cnco2)cc1              pIC50        < 6.00
 4         COc1ccc(C#Cc2ccnc3[nH]ccc23)cc1OC              pIC50        < 6.00
 5  C(#Cc1ccnc2[nH]ccc12)c1cccc(Nc2ccccc2)c1              pIC50        < 6.00
 6             COc1ccccc1C#Cc1ccnc2[nH]ccc12              pIC50  6.00 to 7.00
 7            Fc1ccc(C#Cc2ccnc3[nH]ccc23)cc1              pIC50        < 6.00
 8             C(#Cc1ccnc2[nH]ccc12)c1ccccn1              pIC50        < 6.00
 9  CCNC(=O)/C=C/c1cccc(C#Cc2ccnc3[nH]ccc23)c1              pIC50  6.00 to 7.00
10            Nc1cccc(C#Cc2ccnc3[nH]ccc23)c1              pIC50        < 6.00
11       FC(F)(F)c1ccccc1C#Cc1ccnc2[nH]ccc12              pIC50  6.00 to 7.00
12          N#Cc1ccc(C#Cc2ccnc3[nH]ccc23)cc1              pIC50        < 6.00
13          N#Cc1ccc(C#Cc2ccnc3[nH]ccc23)cn1              pIC50        < 6.00
14             COc1cccnc1C#Cc1ccnc2[nH]ccc12              pIC50        < 6.00
15         N#CCc1ccc(C#Cc2ccnc3[nH]ccc23)cc1              pIC50  6.00 to 7.00
16             C(#Cc1ccnc2[nH]ccc12)c1cncnc1              pIC50        < 6.00
17            Nc1cccc(C#Cc2cnc3[nH]ccc3c2)c1              pIC50  6.00 to 7.00
18           COc1cccc(C#Cc2ccnc3[nH]ccc23)c1              pIC50  6.00 to 7.00
19  C(#Cc1ccnc2[nH]ccc12)c1cccc(-c2cc[nH]n2)c1              pIC50  6.00 to 7.00
20           COc1cncc(C#Cc2ccnc3[nH]ccc23)c1              pIC50  6.00 to 7.00
21  COc1ccc(CNC(=O)Cc2ccccc2C#Cc2ccnc3[nH]ccc23)cc1              pIC50        < 6.00
22      COC(=O)c1cccc(C#Cc2ccnc3[nH]ccc23)n1              pIC50        < 6.00
23  COc1ccc(C#Cc2ccnc(NC(=O)OC(C)(C)C)c2)cc1              pIC50        < 6.00
24     Nc1cc(C#Cc2ccccc2CNC(=O)C(F)(F)F)ccn1              pIC50        < 6.00
25        COC(=O)c1ccccc1C#Cc1ccnc2[nH]ccc12              pIC50  6.00 to 7.00
26  C(#Cc1ccnc2[nH]ccc12)c1ccc(-c2nnc(-c3ccccc3)o2)cc1              pIC50        < 6.00
27        C(#Cc1ncnc2sc3c(c12)CCCC3)c1ccccc1              pIC50        < 6.00
28   C(#Cc1ccnc2[nH]ccc12)c1ccc(N2CCOCC2)cc1              pIC50        < 6.00
29            Nc1ccc(C#Cc2cnc3[nH]ccc3c2)cc1              pIC50        < 6.00
30       CC(=O)c1ccc(C#Cc2ccnc3[nH]ccc23)nc1              pIC50        < 6.00
31       COc1ccc(OC)c(C#Cc2ccnc3[nH]ccc23)c1              pIC50  6.00 to 7.00
32  COc1ccc(NC(=O)Cc2ccccc2C#Cc2ccnc3[nH]ccc23)cc1              pIC50        < 6.00
33             CCc1ccccc1C#Cc1ccnc2[nH]ccc12              pIC50  6.00 to 7.00
34            C[Si](C)(C)C#Cc1ncnc2[nH]ccc12              pIC50        < 6.00
